Molecular target: RSV F on RSV-A2 virus (Respiratory syncytial virus (RSV-A2))
Assay: cell-based or functional assay
Field: Neutralization IC50 (RSV subtype A). Provide a value for each of the binders that follow.

The cases that follow already have their Neutralization IC50 (RSV subtype A) on record.
binder	Neutralization IC50 (RSV subtype A)
ADI-41311 (antibody, V domains shown) VH: QVTLKQSGPALVKPTQTLTLTCTFSGFSLSTKRMGVSWIRQPPGKALEWLARIDWDDDKYYSTSLRTRLTISKDTSKNQVVLTMTDMDPVDTATYYCARIQPYTSGGYYSYYFDYWGQGTLVTVSS VL: DIQVTQSPSSLSASIGDRVTITCRASQTIASYLNWYQQKPGKAPKLLIYIASSLQSGVPSRFSGSGSGTDFTLTISTLQPEDFATYYCQQSYGTPWTFGQGTKVEIK	> 25 µg/mL
ADI-41322 (antibody, V domains shown) VH: QVQLVQSGAEVKKPGSSVRVSCKASGGSFSSYATSWVRQAPGQGLEWMGGIIPMYDAVNYAQKFQGRVTITADESTTTAYMELSSLRSEDTAVYYCARSSGYTGTNFFDYWGQGTLVTVSS VL: DIQMTQSPSSVSASVGDRVTITCRASQDISSWLAWYQQKPGKAPKLLIYTASSLQSGVPSRFSGSGSGTDFTLTISRLQPEDFATYYCQQANSFPRVTFGGGTKVEIK	> 25 µg/mL

Please turn your attention to the following entry.
In: Neutralization IC50 (RSV subtype A) lookup needed for ADI-41349 (antibody, V domains shown) VH: EVQLLESGGGLVQPGRSLRLSCTGSGFTFGDYAMNWVRQAPGKGLEWVGLIRSKDYGGTTEFAASLKGRLTISRDDSKSIAYLQMHSLKTEDSAVYYCTRAHLTDYTDINGYQYYFDYWGQGSPVTVSS VL: DIQMTQSPSSLSASVGDRVTITCQASQDISNFLNWYQQRPGKAPKLLIHDASNLETGVPSRFSGSGSRTEFTFTISSLQPEDIGTYYCQHYDNFPYTFGQGTKVEIK , thanks.
Out: > 25 µg/mL

Reference for the values: patent US20260258115A1
